Condition label: 298.15 K; 101.33 kPa; Liquid
Numbers after ± are expanded uncertainties.
Listed here: items and their measured mass density.
Readout name: mass density

>>> test_value("CCc1ccccc1")
"862.51 ± 0.18 kg/m3"
>>> test_value("CC1CCCCC1")
"765.02 ± 0.36 kg/m3"
>>> test_value("Cc1ccccc1")
"862.17 ± 0.18 kg/m3"
>>> test_value("c1ccccc1")
"873.57 ± 0.17 kg/m3"

###

Measurement protocol: refractive index (Na D-line) (dimensionless)
Condition label: 298.15 K; 101.33 kPa; Liquid; Standard Abbe refractometry
Readout name: refractive index

>>> test_value("CCc1ccccc1")
1.49304
>>> test_value("CCOS(=O)(=O)[O-].CC[n+]1cccc(C)c1 [1-ethyl-3-methylpyridinium ethylsulfate]")
1.50591
>>> test_value("c1ccccc1")
1.49774
>>> test_value("CC1CCCCC1")
1.42062
>>> test_value("Cc1ccccc1")
1.49399
